Values of pIC50 for Menin (Homo sapiens), collected from a number of published sources:
Please keep in mind that pIC50 is minus log10 of the molar concentration; only the number is needed.

Here are 5 molecules together with their reported answers.
Cc1c(CN2CCC(Nc3nc(N)nc4sc(CC(F)(F)F)cc34)CC2)ccc2c1cc(C#N)n2C[C@H](C)N1CCN(S(C)(=O)=O)CC1	7.44
COC(=O)N[C@H]1CCC[C@@H]1[C@](CN1CCC1)(c1cccc(F)c1)C1CCN(CC2CN(c3ccc(S(=O)(=O)C4CN(C(=O)/C=C/CN5CC(F)(F)C5)C4)cc3)C2)CC1	9.00
COC(=O)N[C@H]1CCC[C@@H]1[C@](CN1CCC1)(c1cccc(F)c1)C1CCN(CC2CN(c3ccc(S(=O)(=O)C4CN(C(=O)/C=C/CN5CCCC5)C4)cc3)C2)CC1	8.70
C=C(CN1CCC1)C(=O)N1CC(S(=O)(=O)c2ccc(N3CC(CN4CCC([C@@](CN5CCC5)(c5cccc(F)c5)[C@H]5CCC[C@@H]5NC(=O)OC)CC4)C3)cc2)C1	8.70
C=CC(=O)N1CCN(C(C)=O)CC(S(=O)(=O)c2ccc(N3CC(CN4CCC([C@@](CN5CCC5)(c5cccc(F)c5)[C@H]5CCC[C@@H]5NC(=O)OC)CC4)(OC)C3)cc2)C1 (stereo partly shown)	8.00

**Query** Recorded pIC50 for `C=CC(=O)N1CCCC[C@@H](S(=O)(=O)c2ccc(N3CC(CN4CCC([C@@](CN5CCC5)(c5cccc(F)c5)[C@H]5CCC[C@@H]5NC(=O)OC)CC4)(OC)C3)cc2)C1` , please?
**Result** 8.52

**Query** Same for `C=CC(=O)N1CC(S(=O)(=O)c2ccc(N3CC(CN4CCC([C@](C#N)(c5cccc(F)c5)[C@H]5CCC[C@@H]5OC(=O)NC)CC4)C3)cc2)C1`
**Result** 6.43

**Query** // repeat for `COC(=O)N[C@H]1CCC[C@@H]1[C@](CN1CCCC1)(c1cccc(F)c1)C1CCN(CC2CN(c3ccc(S(=O)(=O)C4CN(C(=O)/C=C/CN(C)C)C4)cc3)C2)CC1` and report
**Result** 8.70

**Query** Record: `CCc1nccn1C[C@@](c1cccc(F)c1)(C1CCN(CC2CN(c3ccc(S(=O)(=O)C4CN(C(=O)/C=C/CN5CCCCC5)C4)cc3)C2)CC1)[C@H]1CCC[C@@H]1NC(=O)OC`
**Result** 8.70

**Query** Item: `C=CC(=O)N1CC(S(=O)(=O)c2ccc(N3CC(F)(CN4CCC([C@@](CN5CCC5)(c5cccc(F)c5)[C@H]5CCC[C@@H]5NC(=O)OC)CC4)C3)cc2)C1`
**Result** 8.52
